- test name: soluble on expression in E. coli; label from the status in PepcDB or PDB records
property name: soluble on expression in E. coli

Solved entries:
{"entry sequence": "MQEKIYQVAVGLIPGVGAATTKTLISYCGCAEQIFKTPKGKLKNIPGIGAVTVDNIYSASVLHEAESIVERAQKLDTQLLFYTDPDYPNRLKQIPDAPTLLYYKGSSALNPPKSIAIVGTRKATEYGRSVVRKLLEEIASYKPLVVSGLAYGIDIQAHRDALELGLETIGVMANGTNIIYPSVHKNTALKMLEQGGLLSEYTFDSIAEPMRFPARNRIIAGMTDATIVIEATQSGGALITAEIADSYDREVLAVPGRITDMASEGCNNLIKQNKAHALTSAADLIELLNWDITPSQQAHKHIILADLEEDELMIYAVLTDNEGIHIDELSWKSQLSMQKISSVLLEMEFKGIVKALPGKKFSLR", "soluble on expression in E. coli": "not soluble"}
{"entry sequence": "MIPSRSARIIAKLQRLHSTTSAASVSSIDVKEVEKFGDLSAEWADELGPFHALHSLNRIRVPWIVDNVRKSDQKAPPRLVDVGSGGGLLSIPLARSGFDVTGIDATKQAVEAANQSLTAKPLQIAGISKRLRFEHTSVEDFCQKPHNKSAYDAVVASEIVEHVADLPGFIGCLAELARPGAPLFITTINRTWLSKLAAIWLAENVLKIVPPGVHDWEKFITPAELTSHLEKAGCRVTAVHGLMFHPVGNHWTWIESTQCNYGILAVKN", "soluble on expression in E. coli": "not soluble"}
{"entry sequence": "MAHHHHHHMLSLPRDHHYHAHHSGTEFVPFDQVIGITPDGVPVISNGNEFHFSNLESVTPSYQALCSSVRKAPVIVPCTKLGAKWQCVEFARRYLASRKAVWTASMPIAADMLRAEPPFVHVQDSTPVEFTRTPNRSHGPAPAMSDIIVWDQSEETPLGHVAVVTEVLPEAVRVAEQNQGFERWPQGMLYSREISMQRSSAGTVELVDEDSVLGWVTLQCPYYDFRDGDLADKFRIATGPGCIVRQPFPKHVELPWVQPEERCDFYLKRSLAIGGNVGDDARAEECDVPSAFFFYFLDY", "soluble on expression in E. coli": "not soluble"}
{"entry sequence": "GMSENKKKFDKKGAKNMDEISKTLFAPIYPIIAENIINRFGITAGTCIDIGSGPGALSIALAKQSDFSIRALDFSKHMNEIALKNIADANLNDRIQIVQGDVHNIPIEDNYADLIVSRGSVFFWEDVATAFREIYRILKSGGKTYIGGGFGNKELRDSISAEMIRKNPDWKEFNRKNISQENVERFQNVLDEIGISSYEIILGDEGFWIIISKTDQEVI", "soluble on expression in E. coli": "soluble"}
{"entry sequence": "MSLKRAIIIGATSGIGKEVAQRLLSEGWQIGIAGRRQSALEEFRQIAPEQIKIQSLDVTQEYSAGKLDALIHQLGGMDLFLLSSGIGFQNMELNMEIELNTARTNVEGFTRMVDTAFSYFRNNGGGHLAVISSIAGTKGLGVAPAYSATKRFQNTYIDALEQLSHLQKLDIHFTDIRPGFVATDLLNDGKHYPMLMKTDQVGRDIVRALHRKQRVAIIDGRYRILVFFWRMIPRWIWKRLPVKTEGHHHHHH", "soluble on expression in E. coli": "soluble"}
{"entry sequence": "GPGSMLCRVHLRADPHSSSLHNVVHATNAMAAVNQLLGPERSVFVATEVQPQGVGHSCHGIQLPEDAIIAENVRTSMLVPKVRLHILGDAERGIPPVQQVVIWGYETCGCILQTADDLLTHGVRVAVLVDGCASRTKEVHDTAVLQISRWDGLMVTTVPSAVMQLTRSDARFVKPIIQIMKKFAADWCTTQPRPELRDRGGSGDGEKATAASDARAVPSALATATAADAILAANSACCRTEH", "soluble on expression in E. coli": "not soluble"}
{"entry sequence": "MGSDKIHHHHHHMIDELRAMAIFAETIKQGSFRAAAKELKLSPSVVSYQVTQLEKSVGTALIYRSTRKLSLTSEGGVLYQYALNMIQAAQQGLNQVAIEKQELRGTLTLTLPSALIKSEISKKISQFSKLHPFLNFKLFYTDDRQDLIHQGIDLAFRAGSMDDSNLKSKRVGEINRKLVCSYDYWKENIPPISPQDLTTWNWIKLDMLPNHRTLVNSAGEKCDIDFESNISVNNVEAMTQLCINGAGIATPPDYLIEKEIENNALVELLPNWQVESIPLYAVWPSNVFQNSSVKRLLEFLI", "soluble on expression in E. coli": "not soluble"}
{"entry sequence": "MKKYSILLLPFILASCAPVSESQFTEQRLSELEIKVAKLEERQEKIEEQLEEINKRLDYITKSIAKREIKSYKEPEEEKPPFEEVKSTEDEKAEYENALELYKMKQLNEARDAFVEFIKKYPNSKYTDNAYFWLGKTFYELGNTERAKQIFNVLIKKCKSGELPDCNKLPDTYFMLVKISLDEGNIEEANRYLSILEEKFPDAEATQRAKELIYKTP", "soluble on expression in E. coli": "not soluble"}
{"entry sequence": "MALTNAQILAVIDSWEETVGQFPVITHHVPLGGGLQGTLHCYEIPLAAPYGVGFAKNGPTRWQYKRTINQVVHRWGSHTVPFLLEPDNINGKTCTASHLCHNTRCHNPLHLCWESADDNKGRNWCPGPNGGCVHAVVCLRQGPLYGPGATVAGPQQRGSHFVV", "soluble on expression in E. coli": "soluble"}
{"entry sequence": "METTGDKAFYFLLKNCGHSLKFVDLRNSKRLHGRSFKLFGSQLESLYLDGSSKVDEMAFEDLCTSCGGLKELRINECYKITDENLSMIARRMEDLSILTLCGDGFKSLTSAGLIHISHMRNITELALDYNALVNDELLISISAGLPLLSSLSLANAGNDSSITAEGVSAIKNLKELTQLDASSLAAVNSKVLEQLGSLKKLEIIQLRNCTYLGDDGVRAKLRMPNIRHVDLSGSILVSNDSIQQFIKAFPSGPKLPPITLVVGGTAADASKLSVRGSRVVVDFSDYSTIVTMQTSQCSSSKFAIGGSASDAEGSDDEFEALTAQRSFYIDAVCGEEESPITDDGKLAEWAEKEARSLGLIKD", "soluble on expression in E. coli": "not soluble"}

Kindly review the next sequence as well.
Entry MGSDKIHHHHHHMHEAVARMLAKYEPKSVDDSVRALREIIQEVALLGLWRSKFFEHAAFYGGTALRILYGLDRFSENLDFSLLEPSPDFNLARYTASLEEELSAFGFNVRVEMVGKAVESAVQSAFLKANTRNELLVIETGGELAGQVAAGQVLKVKIEVDTDPPTGFTTSTRYLLQPIPFAVRSYSLPDLFAGKMHALLFRRWKNRVKGRDWYDFVWYAANHPQLNLAHLEQRMRQTGHWSGDLPLSAAAFRELLSDSIDRLDVDQARNDVAPFVKDQQALALWSHDFFRDVARRVQTDEG has what soluble on expression in E. coli?
not soluble
